- assayed_system: T1, human insulin receptor (INSR) on CHOK1 cells (human, UniProt P06213 28-1382)
- T1 construct: whole, on cells; CHOK1 cells over-expressing human INSR; also called human INSR; hINSR
- experiment: binding to CHO cells expressing human INSR; 1st column headed CHO Human INSR; quantity and unit not printed [cont'd]
Measured CHO Human INSR accompanies every entry in the list below.
Just the number, please, no unit attached.

RHF.15.05896.036 (Fab, V domains shown, Untagged Fab) VH: EVQLVETGGGVVQPGRSLRLSCAASGFKFSSYAMHWVRQAPGKGLEWVAVISYSGGNKYYADSVKGRFTISRDNSKNTLYLQMNSLRAEDTAVYYCARHEWGFGFDLWGQGTTVTVSS VL: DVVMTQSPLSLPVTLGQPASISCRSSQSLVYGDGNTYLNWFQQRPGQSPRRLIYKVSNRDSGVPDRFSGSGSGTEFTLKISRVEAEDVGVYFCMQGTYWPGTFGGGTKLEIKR :: 3.04
XPA.15.247.2.018 Fab (Fab, V domains shown, Monomeric Fab; also called XPA.247.2.018) VH: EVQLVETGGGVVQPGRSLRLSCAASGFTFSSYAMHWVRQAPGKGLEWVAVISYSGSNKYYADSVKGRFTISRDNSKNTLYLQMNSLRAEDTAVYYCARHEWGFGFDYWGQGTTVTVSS VL: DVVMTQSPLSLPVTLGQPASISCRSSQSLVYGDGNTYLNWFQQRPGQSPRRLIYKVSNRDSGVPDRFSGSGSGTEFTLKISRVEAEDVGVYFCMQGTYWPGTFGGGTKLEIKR :: 2.2
RHF.15.05896.068 (Fab, V domains shown, Untagged Fab) VH: EVQLVETGGGVVQPGRSLRLSCAASGFKFSSYAMHWVRQAPGKGLEWVAVISYSGGNKYYADSVKGRFTISRDNSKNTLYLQMNSLRAEDTAVYYCARHEWGFGYDYWGQGTTVTVSS VL: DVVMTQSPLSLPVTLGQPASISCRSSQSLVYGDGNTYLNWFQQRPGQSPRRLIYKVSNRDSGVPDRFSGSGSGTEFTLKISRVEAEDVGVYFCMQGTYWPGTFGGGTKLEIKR :: 1.25
RHF.15.05896.056 (Fab, V domains shown, Untagged Fab) VH: EVQLVETGGGVVQPGRSLRLSCAASGFKFSSYAMHWVRQAPGKGLEWVAVISYGGSNKYYADSVKGRFTISRDNSKNTLYLQMNSLRAEDTAVYYCARHEWGFGFDEWGQGTTVTVSS VL: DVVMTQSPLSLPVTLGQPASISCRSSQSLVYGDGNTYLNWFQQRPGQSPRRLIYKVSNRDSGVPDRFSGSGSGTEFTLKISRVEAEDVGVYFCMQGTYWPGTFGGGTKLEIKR :: 2.26
RHF.15.05896.075 (Fab, V domains shown, Untagged Fab) VH: EVQLVETGGGVVQPGRSLRLSCAASGFKFSSYAMHWVRQAPGKGLEWVAVISYSGSNKYYADSVKGRFTISRDNSKNTLYLQMNSLRAEDTAVYYCARHEWGFGYDYWGQGTTVTVSS VL: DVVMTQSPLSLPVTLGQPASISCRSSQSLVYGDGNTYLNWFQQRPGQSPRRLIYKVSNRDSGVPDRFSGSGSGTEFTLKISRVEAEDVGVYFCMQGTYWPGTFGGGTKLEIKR :: 1.06

Now for a further binder.
// lookup CHO Human INSR for RHF.15.05896.032 (Fab, V domains shown, Untagged Fab) VH: EVQLVETGGGVVQPGRSLRLSCAASGFKFSSYAMHWVRQAPGKGLEWVAVISYSGENKYYADSVKGRFTISRDNSKNTLYLQMNSLRAEDTAVYYCARHEWGFGFDEWGQGTTVTVSS VL: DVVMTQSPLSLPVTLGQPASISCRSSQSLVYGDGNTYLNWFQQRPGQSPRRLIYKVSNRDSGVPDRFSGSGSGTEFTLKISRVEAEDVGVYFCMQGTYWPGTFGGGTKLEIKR
3.1
